- Set-up: species or system SD rats
- condition.details: rat, in vivo, po, 200 mg/kg
property.measured: CL/F (mL/min/kg)
Just the number please, in mL/min/kg, no unit attached.

In: Can you look up the measured CL/F of C=C1CC[C@@H]2[C@](C)(COC(C)=O)[C@H](OC(C)=O)CC[C@@]2(C)[C@@H]1C/C=C1/C(=O)OC[C@H]1OC(C)=O [active pharmaceutical ingredient, triacetyl andrographolide] for me?
Out: 2000
